Data provenance: the nanobody polyreactivity screen of Harvey et al. (2022)

- assay-comment: yeast display, Sf9 membrane polyspecificity reagent, FACS + sequencing; frameworks hold sequencing errors
test-readout: polyreactivity (PSR sort gate)

| primary-sequence | test-readout | measured-value |
| --- | --- | --- |
| QVQLVESGGGLVQAGGSLRLSCAASGIIFYRNAMGWYRQAPGKERELVAAISKGGGSTYYADSVKGRFTISRDNAKNTVYLQMNSLKPEDTAVYYCAAKAYTYYARIGFDYWGQGTQVTVSS | polyreactivity (PSR sort gate) | high polyreactivity |
| QVQLVSSGGGLVLAGGSLRLSCAASGRTIQDNAMGWYTQAPGKERELVAAISWRGGSTNYADSVKGRFTISRDNAKNTVYLQMNSLKPEDTAVYYCNRDPRKYGKLDYWGQGTQVTVSS | polyreactivity (PSR sort gate) | low polyreactivity |
| QVQLVESGGGLVQAGGSLRLSCAASGSTFAYYAMGWYRQAPGKEREFVAVINWRGGSTYYADSVKGRFTISRDNAKNTVYLQMNSLKQEDTAVYYCNGRSGGYYYGFDYWGQGTQVTVSS | polyreactivity (PSR sort gate) | low polyreactivity |
| QVQLVESGGGLVQAGGSLRLSCAASGRTFRTNVMGWYRQAPGKERELVAAISKRGGSTYYADSVKGRFTISRDNAKYTVYLQMNILNPEDTAGYYCAAVFSPYYDHQGDYWGQGTQVTVSS | polyreactivity (PSR sort gate) | high polyreactivity |
| QVQLVDSGGGLVQAGGSLRLSCAASGSNFTKYAMGWYRQAPGKERELVAAILRSGDRTYYADSVKGRFTISRDNAKNTVYLQMTSMIPEDTAVYYCAAGYSQYWTDPQGFAYDYWGQGTQVTVSS | polyreactivity (PSR sort gate) | low polyreactivity |
| QVQLVESAGGLVQAGGSLRLTCAASGRTYFPYAMGLYRQAPGKERELVAAITWSATTTYYADSVKGRFTISRDNAKNTVYLQMISLKPEDTAVYYCNARGDYWGQGTQVTVSS | polyreactivity (PSR sort gate) | low polyreactivity |
| QVQLVESGGGLVQAGGSLRLSCAASGRILVFYAMGGYRQAPGIERELVAAISKSVRPTYYADSVKGRFTISRDNAQNTVYLQMNSLKPEDTAVYYCNTRSASDLWPQYGYWGQGTQVTVSS | polyreactivity (PSR sort gate) | low polyreactivity |
| QVHLVESGGGLVQAGGSLRLTCAASGSIFPYNAMGWYRQSPGEFVAAISYSSGSTYYADSVQGRFTISRDNAKYTVYLQMNCVIPDVTAVYYCAAGSWYPPSYVWLGRYDYWGQGTQVTVSS | polyreactivity (PSR sort gate) | low polyreactivity |
| QVQLVESGGGLVQAGGSLRLSCDASGSIFDGYGMGWYRQAPGKERELVASITWNDGSTYYADSVKGRFTISRDNAKNTVYLQMNSLKPEETAVYYCAADQWGYEYDYWGQGTQVTVSS | polyreactivity (PSR sort gate) | low polyreactivity |
| QVQLVESGGGLVQAGGSLRLSCAASGSIFVFNAMGWYRQAPGKERELVAAITSGGRTYYADSVKGRFTISRDNAKNTVYLQMNSLKPEDTAVYYCAAEFWFFAGWAYEYWGQGTQVTVSS | polyreactivity (PSR sort gate) | high polyreactivity |
| QVQLVESGGGFVQAGGSLRLSCAASGRIFYNYAMGWYRQAPGKERELVAAMSGSGGSTYYADSVKGRFTISRDNAKNTVYLQMNSLKPEDTAVYYCSTSGPQYYSRNVDYWGQGTQVTVSS | polyreactivity (PSR sort gate) | low polyreactivity |
| QVQLVESRGGLVQAGGSLRLSCAASGSTFSVYAMGWYRQAPGKERELVADITRGGSTYADSVTGRFTISRDNAKNTVYLQMNSLKPEDTAVDYCARAEVTPYPLYWSTREYDYWGQGTQVTVSS | polyreactivity (PSR sort gate) | low polyreactivity |
| QVQLVESGGGLVQAGGSLRLSCPASGFTFSYYVMGWYRQSPGKERELVAAISSGGRTYYADSVKGRFTISRDNAKNTVYFQMNSLKPEDTAVYYCAAVRYSNEDDYWGQGTQVTVSS | polyreactivity (PSR sort gate) | high polyreactivity |
| QVQLVESGGGLVQARGSLRLRFAASGSTFPYYAMGWDRQAPGKERELVATITKRGGRKYYADSVKGRFTISRDNAKNTVYFLMTSLKPEDTAVYYCAARFRFAVTYDYWGQGTQVTVSS | polyreactivity (PSR sort gate) | high polyreactivity |
| QVQLVESGGGLVQAGGSLRLSCAASGFTFYYYAMGWYRQAPGKERELVAAISTRDGNTYYADSVKGRFTISRDNAKNTVYLQMNSLKPEDTAVYYCAADYFRYYPYDYSGQGTQVTVSS | polyreactivity (PSR sort gate) | low polyreactivity |
| QVQLVESGGGLVQAGGSLRLSCAASAGIFRYYAMGWYRQAPGKERELVAAITSSGTSTYYADSVKGRFTISRDNAKNTVYLQMNSLKPEDTAVYYCAATRTKRKFDYWGQGTQVTVSS | polyreactivity (PSR sort gate) | high polyreactivity |
| QVQLVESGGGLVQAGGSLRLSFAASGSIFGFNAMGWYRPAPGKERELVAAISSGGITNYADSVKGRFTISRDNAKNTVYLQMNSLKAEDTAVYYCAARAVSEDYYEFDYWGQGTQVTVSS | polyreactivity (PSR sort gate) | low polyreactivity |
| QVQLVESGGALVQAGGSLRLSCASSGFIFGVYDMGWYRQAPGKERELVAAIDSVGSTYYADSVKGRFTISRDNAKNTVYLQMNSLKPEDTAVYYCAKDGSYQAYGYWGQGTQVTVSS | polyreactivity (PSR sort gate) | low polyreactivity |
| QVQLVESGGGLVQAGGSLRLSCAASGSTFRRYAMGWYRPAPGKERELVAVITSRGGSTYYADSVKGRFTISRDNAKNTVYLQMNSLKPEDTAVYYCAAGYTSGYWANHYTPRFYYWGQGTQVTVSS | polyreactivity (PSR sort gate) | high polyreactivity |
| QVQLVESGGGLVQAGGSLRLSCADSGRNFYYYAMGWYRQAPGKERELVAAITSGGRTNYADSVKGRFTISRDNAKNNVYLQMNSLKPEDTAVYYGAATSKYKVRYSRYYYWGQGTQVTVSS | polyreactivity (PSR sort gate) | high polyreactivity |
| QVQLVESGGGLVQAGGSLRLSCAASGRILYTYAMGWYRQAPGKERELVATISSGGGTNYADSVKGRFTISRDNAKNTVYLQMNSLKPEDSAVYYCAARYGYSRGPYYRSDYWGQGTQVTVSS | polyreactivity (PSR sort gate) | high polyreactivity |
